System: cyno B7-H3
Sequence (as listed by the source): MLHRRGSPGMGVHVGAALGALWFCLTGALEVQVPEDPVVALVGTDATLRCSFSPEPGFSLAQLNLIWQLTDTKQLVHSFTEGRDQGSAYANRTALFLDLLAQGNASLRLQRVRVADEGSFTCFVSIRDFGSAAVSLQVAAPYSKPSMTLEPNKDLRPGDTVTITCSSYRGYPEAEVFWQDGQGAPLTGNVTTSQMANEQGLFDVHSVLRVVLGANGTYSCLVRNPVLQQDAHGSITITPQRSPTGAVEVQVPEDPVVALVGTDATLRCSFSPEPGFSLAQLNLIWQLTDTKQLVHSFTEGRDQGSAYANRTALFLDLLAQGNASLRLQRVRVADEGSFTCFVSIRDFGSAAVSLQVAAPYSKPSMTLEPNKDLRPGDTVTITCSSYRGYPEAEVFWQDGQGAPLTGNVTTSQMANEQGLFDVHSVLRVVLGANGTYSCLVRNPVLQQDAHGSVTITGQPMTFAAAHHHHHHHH
Experiment: Biacore T200 SPR binding kinetics, mAb capture, soluble ECD of cyno B7-H3
Design: species or system cynomolgus monkey
Recorded Conditions: 1:1 binding model

| Molecule | ka (1/Ms) cynoB7-H3 |
| --- | --- |
| Ab3: murine anti-B7-H3 mAbs; mouse hybridoma derived (antibody, V domains shown) VH: QVQLQQPGAELVKPGASVKLSCKASGYTFSSYWMHWVKQRPGQGLEWIGLIHPDSGSTNYNEMFKNKATLTVDRSSSTAYVQLSSLTSEDSAVYFCAGGGRLYFDYWGQGTTLTVSS VL: DVVMTQTPLSLPVSLGDQASISCRSSQSLVHSNGDTYLRWYLQKPGQSPKLLIYKVSNRFSGVPDRFSGSGSGTDFTLKITRVEAEDLGVYFCSQSTHVPYTFGGGTKLEIK | 380000 M⁻¹ s⁻¹ |
| Ab13: mouse hybridoma derived anti-B7-H3 monoclonal antibodies (mAbs) (antibody, V domains shown) VH: DVQLQESGPDLVKPSQSLSLTCTVTGYSITSGYSWHWIRQFPGNKLEWMGYIHSSGSTNYNPSLKSRISINRDTSKNQFFLQLNSVTTEDTATYYCAGYDDYFEYWGQGTTLTVSS VL: DIVMTQSQKFMSTSVGDRVSVTCKASQNVGFNVAWYQQKPGQSPKALIYSASYRYSGVPDRFTGSGSGTDFTLTISNVQSEDLAEYFCQQYNSYPFTFGSGTKLEIK | 440000 M⁻¹ s⁻¹ |
| Ab12: murine anti-B7-H3 mAbs; mouse hybridoma derived (antibody, V domains shown) VH: EVQLVESGGGLVKPGGSLKLSCAASGFTFSSYAMSWVRQTPEKRLEWVATISSGTNYTYYPDSVKGRFTISRDNAKNTLYLQMTSLRSEDTAMYYCARQGRYSWIAYWGQGTLVTVSA VL: DIVLTQSPASLAVSLGQRATISCRASKSVSTSDYSYMHWNQQKPGQPPKLLIYLASNLESGVPARFSGSGSGTDFTLNIHPVEEEDAATYYCQHSRELLTFGAGTKLELK | 55000 M⁻¹ s⁻¹ |
